What growth was measured for each of the following?
- System: MDA-MB-468 breast
- Experimental Protocol: NCI-60 one-dose screen, 48 h (100 = growth as untreated, 0 = no growth, -100 = all killed)
- Reported Conditions: 10 µM unless noted
- Method: Growth inhibition of the MDA-MB-468 human Breast tumor cell line is measured as a screen for anti-cancer activity. Cells are grown in 96 well plates and exposed to the test compound for 48 hours. Compounds are tested at a single concentration, which is 10^-5 M for most compounds. The reported endpoint is percent growth (GI% or GIPRCNT), where numbers from 0 - 100% represent growth inhibition, and numbers from -100% - 0 represent cell death. […]
This is part of a sample that, as a whole, favours compounds with a hit. Of some 83,000 tested, about 20% had one in any assay. The source made the active and inactive calls. The calls were made as follows: active = growth percent below 10; inactive = the rest.

# count of solved cases: 5
Compound: CC(C)(C)OC(=O)N1C/C(=C\c2ccc(F)cc2)C(=O)/C(=C/c2ccc(F)cc2)C1
growth: -82.3% (active)

Compound: O=C(CSc1nnc(-c2ccc(-c3nc4ccc(Cl)cc4[nH]3)cc2)o1)Nc1ccc(Cl)cc1
growth: 72.4% (inactive)

Compound: CC1CCc2c(sc3nc(SCC(=O)c4cccc(Br)c4)n(-c4ccccc4)c(=O)c23)C1 (configuration not stated)
growth: 29.6% (inactive)

Compound: Fc1ccc(Nc2nnc(-c3c[nH]c4ccccc34)o2)cc1
growth: 32.6% (inactive)

Compound: COc1ccccc1/C=C/c1cccc(NC(=S)NCCCCN(C)C)c1
growth: -86% (active)

Would you mind listing growth for each of the following compounds?
1. CN(C)c1ccc(/C=C/c2n(Cc3ccc4ccccc4c3)c3ccccc3[n+]2Cc2ccc3ccccc3c2)cc1
2. COc1ccc(-c2nnc3c(/C=C/c4ccc(Br)cc4)nc4ccccc4n23)cc1

(A)
["-82.2% (active)", "32.7% (inactive)"]
